Tested on: 156681-154-R-J1-PDC complex spheroid viability
Experiment: Anticancer human tumor 156681-154-R-J1-PDC patient-derived melanoma cell line growth inhibition [CLK]; active means viability on the fitted dose curve at most 10% of control; inactive means the rest
Details: second compound 3.16 µM; first compound 0.316 µM
Classes used: yes (1) (active), no (0) (inactive)

{"columns": ["compound", "assigned.category"],
 "data": [
  ["COC1C=CCC(C)C(C)S(=O)(=O)NC(=O)c2ccc3c(c2)N(CC2CCC21)CC1(CCCc2cc(Cl)ccc21)CO3 (stereo not drawn) + CNC(=O)c1ccc(Nc2nc(OC3CCCC3)c3c(-c4ccc5nc(C)oc5c4)c[nH]c3n2)c(OC)c1", "no (0)"],
  ["CC1(C)CCC(CN2CCN(c3ccc(C(=O)NS(=O)(=O)c4ccc(NCC5CCOCC5)c([N+](=O)[O-])c4)c(Oc4cnc5[nH]ccc5c4)c3)CC2)=C(c2ccc(Cl)cc2)C1 + CN1CCN(c2cc(C(=O)Nc3cc4cc(-c5cnn(C)c5)ccc4cn3)ccn2)CC1", "yes (1)"],
  ["CCCS(=O)(=O)Nc1ccc(F)c(C(=O)c2c[nH]c3ncc(-c4ccc(Cl)cc4)cc23)c1F + CN1CCN(c2cc(C(=O)Nc3cc4cc(-c5cnn(C)c5)ccc4cn3)ccn2)CC1", "yes (1)"]
]}

====

Test system: 156681-154-R-J1-PDC complex spheroid viability
Experiment: Anticancer human tumor 156681-154-R-J1-PDC cell line growth inhibition [CLK];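 further: spheroids exposed to the agents for seven days; 100% = DMSO vehicle control viability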
Settings: second compound 0.316 µM; first compound 3.16 µM; stronger effect = lower value
Hi! Could you tag entries with viability, T/C below 20% as label 1, and those at or above as label 0? Much appreciated.

{"columns": ["molecule", "assigned.category"],
 "data": [
  ["CC(=O)O[C@H]1C(=O)[C@@]2(C)[C@H]([C@H](OC(=O)c3ccccc3)[C@]3(O)C[C@H](OC(=O)[C@H](O)[C@@H](NC(=O)c4ccccc4)c4ccccc4)C(C)=C1C3(C)C)[C@]1(OC(C)=O)CO[C@@H]1C[C@@H]2O + CN1CCN(c2cc(C(=O)Nc3cc4cc(-c5cnn(C)c5)ccc4cn3)ccn2)CC1", "label 1"],
  ["Nc1ccn(C2OC(CO)C(O)C2(F)F)c(=O)n1 (stereo not given) + CNC(=O)c1ccc(Nc2nc(OC3CCCC3)c3c(-c4ccc5nc(C)oc5c4)c[nH]c3n2)c(OC)c1", "label 1"],
  ["O=c1[nH]cc(F)c(=O)[nH]1 + CNC(=O)c1ccc(Nc2nc(OC3CCCC3)c3c(-c4ccc5nc(C)oc5c4)c[nH]c3n2)c(OC)c1", "label 0"],
  ["Nc1ccn(C2OC(CO)C(O)C2(F)F)c(=O)n1 (stereo not given) + CN1CCN(c2cc(C(=O)Nc3cc4cc(-c5cnn(C)c5)ccc4cn3)ccn2)CC1", "label 1"],
  ["C#Cc1c(F)ccc2cc(O)cc(-c3ncc4c(N5CC6CCC(C5)N6)nc(OCC56CCCN5CC(F)C6)nc4c3F)c12 (stereo not given) + CNC(=O)c1ccc(Nc2nc(OC3CCCC3)c3c(-c4ccc5nc(C)oc5c4)c[nH]c3n2)c(OC)c1", "label 0"]
]}

====

Below, each entry is listed with its recorded viability, T/C.
System: 156681-154-R-J1-PDC complex spheroid viability
Test: Anticancer human tumor 156681-154-R-J1-PDC cell line growth inhibition [CLK];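 further: spheroids exposed to the agents for seven days; 100% = DMSO vehicle control viability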
Details: second compound 0.316 µM; first compound 10 µM; stronger effect = lower value

{"columns": ["molecule", "endpoint.unit", "viability, T/C"],
 "data": [
  ["CC(Nc1ccc2c(c1)OCCn1cc(N3C(=O)OCC3C(F)F)nc1-2)C(N)=O (stereo not given) + CNC(=O)c1ccc(Nc2nc(OC3CCCC3)c3c(-c4ccc5nc(C)oc5c4)c[nH]c3n2)c(OC)c1", "%", 15.8],
  ["CC(CO)NC(=O)c1cc(-c2ccc(Cl)cc2)nn(-c2cnn(C)c2)c1=O (stereo not given) + CN1CCN(c2cc(C(=O)Nc3cc4cc(-c5cnn(C)c5)ccc4cn3)ccn2)CC1", "%", 21.5],
  ["Nc1ccccc1NC(=O)c1ccc(CNC(=O)OCc2cccnc2)cc1 + CN1CCN(c2cc(C(=O)Nc3cc4cc(-c5cnn(C)c5)ccc4cn3)ccn2)CC1", "%", 0.71],
  ["CC(CO)NC(=O)c1cc(-c2ccc(Cl)cc2)nn(-c2cnn(C)c2)c1=O (stereo not given) + CNC(=O)c1ccc(Nc2nc(OC3CCCC3)c3c(-c4ccc5nc(C)oc5c4)c[nH]c3n2)c(OC)c1", "%", 38.2],
  ["C=C(F)C(=O)N1CCN(c2nc(OCC3CCCN3C)nc3c2CCN(c2cccc4cccc(Cl)c24)C3)CC1CC#N (stereo not given) + CN1CCN(c2cc(C(=O)Nc3cc4cc(-c5cnn(C)c5)ccc4cn3)ccn2)CC1", "%", 1.76]
]}
